Reference source: ChEMBL document CHEMBL1157890

System: Aedes aegypti
Assay: Larvicidal activity against Aedes aegypti fourth instar larvae after 24 hrs
Type: functional
Output 1 for records whose LC90 is lower than 20 µg/mL, 0 for records at or above 20 µg/mL.

Consider the following illustrative entries.
COC1=C(C)C(=O)c2cccc(O)c2C1=O : 0
CC1=CC(=O)c2c(O)ccc(-c3ccc(O)c4c3C(=O)C(C)=CC4=O)c2C1=O : 0
CC1=CC(=O)c2c(O)cccc2C1=O : 1
C[C@H]1CC(=O)c2c(O)cccc2[C@H]1O : 1
C=C(C)[C@H]1Cc2c(ccc3c2O[C@@H]2COc4cc(OC)c(OC)cc4[C@@H]2C3=O)O1 : 0
CC1=CC(=O)c2c(ccc(-c3cc(O)c4c(c3C)C(=O)CCC4=O)c2O)C1=O : 0

Could you now look at the following compound, please?
Decide: LC90 of "CC1=CC(=O)c2c(ccc(O)c2O)C1=O" strictly below 20 µg/mL?
1
